- System tested: Glutamate NMDA receptor; Grin1/Grin2b (Rattus norvegicus, UniProt P35439+Q00960)
- Sequence (Q00960 whole entry, other chains not shown): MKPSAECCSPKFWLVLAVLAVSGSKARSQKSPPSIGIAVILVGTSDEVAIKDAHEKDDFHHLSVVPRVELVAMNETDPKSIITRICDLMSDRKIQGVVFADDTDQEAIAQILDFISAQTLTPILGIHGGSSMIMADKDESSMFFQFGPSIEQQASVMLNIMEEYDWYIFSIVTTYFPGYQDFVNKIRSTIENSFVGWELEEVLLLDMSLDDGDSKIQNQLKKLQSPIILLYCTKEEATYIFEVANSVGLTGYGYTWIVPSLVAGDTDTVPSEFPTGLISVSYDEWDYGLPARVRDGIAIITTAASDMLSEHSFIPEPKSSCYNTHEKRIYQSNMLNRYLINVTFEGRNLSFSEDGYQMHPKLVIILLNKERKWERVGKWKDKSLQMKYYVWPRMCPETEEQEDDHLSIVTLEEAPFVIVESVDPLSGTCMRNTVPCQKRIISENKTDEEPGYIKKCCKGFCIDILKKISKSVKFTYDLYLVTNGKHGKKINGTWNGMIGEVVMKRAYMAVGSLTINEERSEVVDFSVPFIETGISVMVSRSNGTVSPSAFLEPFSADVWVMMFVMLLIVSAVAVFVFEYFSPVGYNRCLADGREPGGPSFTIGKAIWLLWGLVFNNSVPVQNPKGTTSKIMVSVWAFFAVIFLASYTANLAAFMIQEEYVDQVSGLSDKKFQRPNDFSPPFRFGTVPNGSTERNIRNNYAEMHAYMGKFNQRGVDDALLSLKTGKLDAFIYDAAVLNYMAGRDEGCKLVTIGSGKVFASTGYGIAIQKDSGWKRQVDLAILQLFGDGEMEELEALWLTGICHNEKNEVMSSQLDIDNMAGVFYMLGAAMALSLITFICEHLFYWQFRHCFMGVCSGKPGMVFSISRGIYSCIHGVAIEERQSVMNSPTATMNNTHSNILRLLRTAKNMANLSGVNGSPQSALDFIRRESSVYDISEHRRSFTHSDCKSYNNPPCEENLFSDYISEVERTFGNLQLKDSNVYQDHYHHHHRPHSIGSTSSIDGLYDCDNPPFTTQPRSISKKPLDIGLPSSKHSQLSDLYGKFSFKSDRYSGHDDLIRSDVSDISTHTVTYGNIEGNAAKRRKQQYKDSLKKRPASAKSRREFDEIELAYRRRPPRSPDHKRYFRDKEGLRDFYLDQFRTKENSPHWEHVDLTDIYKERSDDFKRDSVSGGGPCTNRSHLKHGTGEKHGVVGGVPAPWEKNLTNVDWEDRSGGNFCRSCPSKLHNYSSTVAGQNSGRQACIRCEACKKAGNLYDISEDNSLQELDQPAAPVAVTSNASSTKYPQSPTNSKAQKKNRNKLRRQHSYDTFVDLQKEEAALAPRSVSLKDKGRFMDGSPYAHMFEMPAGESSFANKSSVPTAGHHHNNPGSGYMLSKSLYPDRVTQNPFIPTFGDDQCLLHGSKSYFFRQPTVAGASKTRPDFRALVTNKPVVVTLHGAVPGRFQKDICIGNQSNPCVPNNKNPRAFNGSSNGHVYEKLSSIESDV
- Assay info: Inhibition of rat recombinant NR1/NR2B receptor expressed in Xenopus oocytes assessed as inhibition of glutamate and glycine-induced evoked current by two electrode voltage clamp method
pIC50: −log10 of the molar value.
Assay readout: pIC50

{"Smiles repr": "O=S(=O)(Nc1ccc(OC[C@@H](O)CNCCc2ccc(Cl)c(Cl)c2)cc1)c1ccccc1", "Value observed": 5.84}
{"Smiles repr": "CS(=O)(=O)Nc1ccc(OC[C@@H](O)CNCCc2ccc(F)cc2)cc1", "Value observed": 6.13}
{"Smiles repr": "Cc1cc(OC[C@@H](O)CNCCc2ccc(Cl)c(Cl)c2)ccc1NS(C)(=O)=O", "Value observed": 6.16}
{"Smiles repr": "CCCCCN(CCc1ccc(Cl)c(Cl)c1)C[C@H](O)COc1ccc(NS(C)(=O)=O)cc1", "Value observed": 6.18}
{"Smiles repr": "CS(=O)(=O)Nc1ccc(OC[C@@H](O)CN(CCc2ccc(Cl)c(Cl)c2)Cc2ccccc2O)cc1", "Value observed": 6.18}
